Test system: NCI-H1395
Experimental Protocol: Cell viability assay for NSCLC lines
Type: cell-based, human
Applied Conditions: NCI-H1395, 3 days
Endpoint Label: IC50 (nM)
Numbers only, in nM.

Exam item: Fill blank: measured IC50 of the compound CO[C@H]1CC[C@H](N2C(=O)CNc3ncc(-c4ccc(C(C)(C)O)nc4)nc32)CC1 is ____.
Marked response: 600

* * *

Tested on: SNU-475
Experimental Protocol: Growth inhibition assay for HCC lines
Type: cell-based
Applied Conditions: SNU-475, 96 hours, RPMI 1640 + 10% FBS
Endpoint Label: IC50 (nM)
Answers are plain numbers, in nM.

Exam item: I am curious: what IC50 value has been reported for CO[C@H]1CC[C@H](N2C(=O)CNc3ncc(-c4ccc(C(C)(C)O)nc4)nc32)CC1 ?
Marked response: 690
